Each entry below carries its reported self-cleavage.
B1: Hairpin Ribozyme (parent)
chain: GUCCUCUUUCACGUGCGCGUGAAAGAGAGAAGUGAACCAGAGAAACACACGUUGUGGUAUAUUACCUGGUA

- Variants of: B1
- Assay method text: self-cleavage, relative activity (ratio to wild type); higher = more cleavage; co-transcriptional

{"columns": ["Mutation id", "self-cleavage"],
 "data": [
  ["A39U C50U", 0.204],
  ["G25A A59G", 0.138],
  ["U53A A59C", 0.0694],
  ["G42C G68U", 0.138],
  ["A26U C48A", 0.153],
  ["A30G G54U", 0.123],
  ["G69A A71U", 0.152]
]}
